# target-or-test-system: T1, ZFP SBS#1193 (synthetic)
# T1 chain: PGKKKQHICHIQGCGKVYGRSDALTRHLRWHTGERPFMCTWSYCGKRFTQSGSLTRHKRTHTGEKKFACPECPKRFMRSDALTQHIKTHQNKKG
# measurement-description: EMSA
# run-conditions: tags: MBP fusion
readout-type: Kd
Just so you know, I need the unit written after the number.

# Kd (binder: ATGGCAGTG (dsDNA) DNA 1: ATGGCAGTG DNA 2: CACTGCCAT ) is 3.12 nM
